Where do these numbers come from? They come from patent US20090275583A1.

So I've got a bunch of compounds here, and I need their pIC50 values.
# System: HIV-1NL4-3
# Method Summary: P4-MAGI assay
# Type: cell-based
# Applied Conditions: Human immunodeficiency virus 1, 24 h, P4 cells, 24 hour incubation, β-galactosidase expression; read-out: P4-MAGI IC50
Answers are plain numbers, as −log10 of the molar value.

Some solved cases for reference:
| Compound | pIC50 |
| --- | --- |
| C=C(C)[C@@H]1CC[C@]2(C(=O)NCCc3cccc(C(=O)NCC4CCCN4C(=O)OC(C)(C)C)c3)CC[C@]3(C)C(CCC4[C@@]5(C)CC[C@H](O)C(C)(C)C5CC[C@]43C)C12 (stereo partly shown) | 6.07 |
| C=C(C)[C@@H]1CC[C@]2(C(=O)NCCc3cccc(C(=O)NCc4nc(C(=O)O)co4)c3)CC[C@]3(C)C(CCC4[C@@]5(C)CC[C@H](O)C(C)(C)C5CC[C@]43C)C12 (stereo partly shown) | 7.35 |
| C=C(C)[C@@H]1CC[C@]2(C(=O)NCCc3cccc(C(=O)NCC4CCCN4)c3)CC[C@]3(C)C(CCC4[C@@]5(C)CC[C@H](O)C(C)(C)C5CC[C@]43C)C12 (stereo partly shown) | 5.71 |
| C=C(C)[C@@H]1CC[C@]2(C(=O)NCc3cccc(C(=O)NCc4ccc(C(=O)O)cc4)c3)CC[C@]3(C)C(CCC4[C@@]5(C)CC[C@H](O)C(C)(C)C5CC[C@]43C)C12 (stereo partly shown) | 7.67 |
| C=C(C)[C@@H]1CC[C@]2(C(=O)NCc3cccc(C(=O)NCc4ccc(OCCCN5CCOCC5)c(C(=O)OC)c4)c3)CC[C@]3(C)C(CCC4[C@@]5(C)CC[C@H](O)C(C)(C)C5CC[C@]43C)C12 (stereo partly shown) | 7.72 |

List the reported pIC50 of each compound below.
1. C=C(C)[C@@H]1CC[C@]2(C(=O)NCc3cccc(C(=O)NCc4cccc(C(=O)O)c4)c3)CC[C@]3(C)C(CCC4[C@@]5(C)CC[C@H](O)C(C)(C)C5CC[C@]43C)C12 (stereo partly shown)
2. C=C(C)[C@@H]1CC[C@]2(C(=O)NCCc3cccc(C(=O)NCc4ccc(OCCCO)cc4)c3)CC[C@]3(C)C(CCC4[C@@]5(C)CC[C@H](O)C(C)(C)C5CC[C@]43C)C12 (stereo partly shown)
3. C=C(C)[C@@H]1CC[C@]2(C(=O)NCc3cccc(C(=O)NCc4cccc(Br)c4)c3)CC[C@]3(C)C(CCC4[C@@]5(C)CC[C@H](O)C(C)(C)C5CC[C@]43C)C12 (stereo partly shown)
4. C=C(C)[C@@H]1CC[C@]2(C(=O)NCCc3cccc(C(=O)NCc4ccc(N)cn4)c3)CC[C@]3(C)C(CCC4[C@@]5(C)CC[C@H](O)C(C)(C)C5CC[C@]43C)[C@@H]12 (stereo partly shown)

a:
1: 7.81; 2: 7.41; 3: 6.39; 4: 7.64

q: So what's the measured pIC50 for this one? C=C(C)[C@@H]1CC[C@]2(C(=O)NCCc3cccc(-c4nnc(Cc5ccc(C#N)cc5)o4)c3)CC[C@]3(C)C(CCC4[C@@]5(C)CC[C@H](O)C(C)(C)C5CC[C@]43C)C12 (stereo partly shown)
a: 7.18

====

# Test system: HIV-1NL4-3
# Method Summary: P4-MAGI assay
# Assay type: cell-based
# Applied Conditions: Human immunodeficiency virus 1, 24 h, P4 cells, 24 hour incubation, β-galactosidase expression; read-out: P4-MAGI IC50
Label rule met when IC50 is strictly below 50 nM; at or above that, label rule not met.

Reference set (6 entries):
| Compound | Subject Of Test | Label |
| --- | --- | --- |
| C=C(C)[C@@H]1CC[C@]2(C(=O)NCc3cccc(C(=O)Nc4ccc(C(=O)O)cc4)c3)CC[C@]3(C)C(CCC4[C@@]5(C)CC[C@H](O)C(C)(C)C5CC[C@]43C)C12 (stereo partly shown) | HIV-1NL4-3 | rule not met |
| C=C(C)[C@@H]1CC[C@]2(C(=O)NCCc3cccc(C(=O)NCc4ccc(OCCCN5CC(C)NC(C)C5)cc4)c3)CC[C@]3(C)C(CCC4[C@@]5(C)CC[C@H](O)C(C)(C)C5CC[C@]43C)C12 (stereo partly shown) | HIV-1NL4-3 | rule not met |
| C=C(C)[C@@H]1CC[C@]2(C(=O)NCc3cc(C(=O)NCCc4ccc(C(=O)O)cc4)ccc3F)CC[C@]3(C)C(CCC4[C@@]5(C)CC[C@H](O)C(C)(C)C5CC[C@]43C)C12 (stereo partly shown) | HIV-1NL4-3 | rule met |
| C=C(C)[C@@H]1CC[C@]2(C(=O)NCc3cccc(C(=O)NCc4cccc(C(=O)O)n4)n3)CC[C@]3(C)C(CCC4[C@@]5(C)CC[C@H](O)C(C)(C)C5CC[C@]43C)C12 (stereo partly shown) | HIV-1NL4-3 | rule not met |
| C=C(C)[C@@H]1CC[C@]2(C(=O)NCCc3cccc(C(=O)NCc4ccc(O)cc4)c3)CC[C@]3(C)C(CCC4[C@@]5(C)CC[C@H](O)C(C)(C)C5CC[C@]43C)C12 (stereo partly shown) | HIV-1NL4-3 | rule met |
| C=C(C)[C@@H]1CC[C@]2(C(=O)NCCc3cccc(C(=O)NCc4ccc(OCCCN5CC(C)NC(C)C5)c(C(=O)O)c4)c3)CC[C@]3(C)C(CCC4[C@@]5(C)CC[C@H](O)C(C)(C)C5CC[C@]43C)C12 (stereo partly shown) | HIV-1NL4-3 | rule met |

q: Lab note: confirm whether the reported IC50 for this compound is below 50 nM, equality not counting. compound: C=C(C)[C@@H]1CC[C@]2(C(=O)NCc3cccc(C(=O)NCC(F)(F)c4ccc(C(=O)O)cc4)c3)CC[C@]3(C)C(CCC4[C@@]5(C)CC[C@H](O)C(C)(C)C5CC[C@]43C)C12 (stereo partly shown)
a: rule not met

q: Can you check C=C(C)[C@@H]1CC[C@]2(C(=O)NCc3ccc(F)c(C(=O)NCc4cccc(C(=O)OC)c4)c3)CC[C@]3(C)C(CCC4[C@@]5(C)CC[C@H](O)C(C)(C)C5CC[C@]43C)C12 (stereo partly shown) next?
a: rule not met

q: Would you kindly repeat that for CC(O)(CN1CCCC1)[C@@H]1CC[C@]2(C(=O)NCc3cccc(C(=O)NCCCCC(=O)O)c3)CC[C@]3(C)C(CCC4[C@@]5(C)CC[C@H](O)C(C)(C)C5CC[C@]43C)C12 (stereo partly shown) ?
a: rule not met

q: Repeat for the following compound: C=C(C)[C@@H]1CC[C@]2(C(=O)NCc3cccc(C(=O)NCc4ccc(F)c(C(=O)O)c4)c3)CC[C@]3(C)C(CCC4[C@@]5(C)CC[C@H](O)C(C)(C)C5CC[C@]43C)C12 (stereo partly shown)
a: rule not met

====

Assignment: determine reported IC50 for the given molecules.
# System: HIV-1NL4-3
# Method Summary: P4-MAGI assay
# Format: cell-based
# Applied Conditions: Human immunodeficiency virus 1, 24 h, P4 cells, 24 hour incubation, β-galactosidase expression; read-out: P4-MAGI IC50
Answers are plain numbers, in nM.

Examples from the recorded data:
| Molecule | Value Kind | Data Value |
| --- | --- | --- |
| C=C(C)[C@@H]1CC[C@]2(C(=O)NCCc3cccc(C(=O)NCCc4c[nH]c5ccccc45)c3)CC[C@]3(C)C(CCC4[C@@]5(C)CC[C@H](O)C(C)(C)C5CC[C@]43C)C12 (stereo partly drawn) | IC50 | 85 |
| C=C(C)[C@@H]1CC[C@]2(C(=O)NCc3cccc(C(=O)NCCCCCCC(=O)O)c3)CC[C@]3(C)C(CCC4[C@@]5(C)CC[C@H](O)C(C)(C)C5CC[C@]43C)C12 (stereo partly drawn) | IC50 | 46.7 |

q: Quick one: IC50 for C=C(C)[C@@H]1CC[C@]2(C(=O)NCCc3cccc(C(=O)NCCCCC(=O)O)c3)CC[C@]3(C)C(CCC4[C@@]5(C)CC[C@H](O)C(C)(C)C5CC[C@]43C)C12 (stereo partly drawn) ?
a: 46.7

====

Task for the reader: assign each of the following molecules its reported pIC50.
# System: HIV-1NL4-3
# Method Summary: P4-MAGI assay
# Type: cell-based
# Applied Conditions: Human immunodeficiency virus 1, 24 h, P4 cells, 24 hour incubation, β-galactosidase expression; read-out: P4-MAGI IC50
One number for each entry, as −log10 of the molar value.

Consider the following illustrative entries.
| Molecule | pIC50 |
| --- | --- |
| C=C(C)[C@@H]1CC[C@]2(C(=O)NCCc3cc(C(=O)NCc4ccc(C(=O)O)cn4)ccc3F)CC[C@]3(C)C(CCC4[C@@]5(C)CC[C@H](O)C(C)(C)C5CC[C@]43C)C12 (stereo partly drawn) | 6.70 |
| C=C(C)[C@@H]1CC[C@]2(C(=O)NCCc3cccc(C(=O)NCC4COCC(C(=O)O)O4)c3)CC[C@]3(C)C(CCC4[C@@]5(C)CC[C@H](O)C(C)(C)C5CC[C@]43C)C12 (stereo partly drawn) | 6.95 |

Note: attention shifts to another entry.
q: Which pIC50 value belongs to CC(O)(CN1CCCC1)[C@@H]1CC[C@]2(C(=O)NCCc3cccc(C(=O)NCc4ccc(C(=O)O)cn4)c3)CC[C@]3(C)C(CCC4[C@@]5(C)CC[C@H](O)C(C)(C)C5CC[C@]43C)C12 (stereo partly drawn) ?
a: 7.00
